Ref: patent US20100075907A1

# ASSAY_SYSTEM: mouse NMUR1-ATG (Mus musculus)
# Sequence (O55040 1-428): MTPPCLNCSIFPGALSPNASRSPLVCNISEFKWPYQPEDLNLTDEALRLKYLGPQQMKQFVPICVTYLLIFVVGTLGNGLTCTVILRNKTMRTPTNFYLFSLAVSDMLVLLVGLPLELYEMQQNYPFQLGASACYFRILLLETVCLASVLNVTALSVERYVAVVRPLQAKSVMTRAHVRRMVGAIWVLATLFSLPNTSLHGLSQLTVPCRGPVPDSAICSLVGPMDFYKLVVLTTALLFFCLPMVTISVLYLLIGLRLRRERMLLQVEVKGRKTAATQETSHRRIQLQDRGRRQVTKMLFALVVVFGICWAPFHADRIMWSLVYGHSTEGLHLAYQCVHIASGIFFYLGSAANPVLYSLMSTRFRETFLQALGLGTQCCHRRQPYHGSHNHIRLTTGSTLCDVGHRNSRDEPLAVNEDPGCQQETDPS
# METHOD_NOTES: FLIPR calcium mobilization assay, mouse NMUR1-ATG
# Type: cell-based
# Set-up: expressed in transfected cells; host or cells: FLP-In CHO or HEK-293 FLP-In cells (pcDNA5)
# TEST_CONDITIONS: FLIPR, mouse NMUR1-ATG
*: point of attachment. Palmitoyl = CCCCCCCCCCCCCCCC(=O)*
ENDPOINT_NAME: pEC50
In plain terms, pEC50 is the concentration in mol/L turned into minus its base-10 logarithm.

The cases that follow already have their pEC50 on record.
- Ac-C2FRVDEEFQSPFASQSRGYFLFRPRN-CONH2 [NMU9] ({Ac-C(PEG 40 kDa)}-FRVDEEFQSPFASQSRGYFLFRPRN-NH2) [C2 = Cys(PEG)240 kDa from Nektar (mPEG2-MAL-40 k)]: 7.34
- Pam-C2FRVDEEFQSPFASQSRGYFLFRPRN-CONH2 ({Palmitoyl-C(PEG 40 kDa)}-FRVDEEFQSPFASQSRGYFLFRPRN-NH2) [NMU25, Pam = palmitoyl; C2 = Cys(PEG)240 kDa]: 7.99
- Ac-C2FQSPFASQSRGYFLFRPRN-CONH2 ({Ac-C(PEG 40 kDa)}-FQSPFASQSRGYFLFRPRN-NH2; not fully specified; printed as Ac-C2FQSPFASQSRGYFLFRPRN-CONH2) [NMU20, C2 = Cys(PEG)240 kDa]: 7.90
- Ac-C4-C4-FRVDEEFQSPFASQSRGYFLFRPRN-CONH2 ({Ac-C(PEG 20 kDa)-C(PEG 20 kDa)}-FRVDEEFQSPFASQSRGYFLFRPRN-NH2) [NMU23, C4 = Cys(PEG)20 kDa]: 7.85

As a next step, examine the substance that follows.
State measured pEC50 of the substance Ac-C4FRVDEEFQSPFASQSRGYFLFRPRN-CONH2 ({Ac-C(PEG 20 kDa)}-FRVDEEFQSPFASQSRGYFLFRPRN-NH2) [NMU21, C4 = Cys(PEG)20 kDa] with mouse NMUR1-ATG (Mus musculus).
8.04

----------
Measured % Activity, listed per entry for reference.
# ASSAY_SYSTEM: hNMUR2 (Homo sapiens, UniProt Q9GZQ4)
# Sequence (Q9GZQ4 whole entry): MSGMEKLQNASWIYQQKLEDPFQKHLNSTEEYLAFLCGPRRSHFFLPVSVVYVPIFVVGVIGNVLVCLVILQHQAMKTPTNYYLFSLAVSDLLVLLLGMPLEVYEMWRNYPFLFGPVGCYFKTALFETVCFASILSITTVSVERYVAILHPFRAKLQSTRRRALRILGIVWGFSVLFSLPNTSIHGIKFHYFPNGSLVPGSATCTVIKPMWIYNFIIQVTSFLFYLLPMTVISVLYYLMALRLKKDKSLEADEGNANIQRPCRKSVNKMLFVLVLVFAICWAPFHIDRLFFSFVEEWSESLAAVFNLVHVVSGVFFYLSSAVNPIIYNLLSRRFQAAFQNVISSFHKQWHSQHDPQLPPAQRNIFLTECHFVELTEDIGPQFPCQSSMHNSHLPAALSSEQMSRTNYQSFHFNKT
# METHOD_NOTES: In vitro functional assay, HEK-hR2 cells
# Assay type: cell-based
# Parameters: expressed in transfected cells; host or cells: FLP-In CHO or HEK-293 FLP-In cells (pcDNA5); HEK-293/aeq17 lines (pcDNA3.1) were also made; concentration or dose not given beside the values
# TEST_CONDITIONS: Table 9, HEK-hR2, functional
# Protocol: […] After a 90 minute incubation at room-temperature, cell plates were loaded onto a FLIPR (Molecular Devices) to monitor cellular fluorescence (excitation=488 nm; emission=540 nm) before and after compound/peptide addition. […] The response after peptide addition was taken as the maximum fluorescence units minus the fluorescence immediately prior to stimulation for each well. EC50 values were calculated using GraphPad Prism (San Diego, Calif.) software. […]
No end group written: not given here.
Give the value, in units of %, as a plain number.

The cases that follow already have their % Activity on record.
* FALFRPRN-NH2 [Agonist N] | 100
* WALFRARN-NH2 [Agonist M] | 93
* H-FWLFRARN-NH2 [Agonist L] | 100

As a next step, examine the substance that follows.
State measured % Activity of the substance H-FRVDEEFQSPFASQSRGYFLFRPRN-NH2 [hNMU-25, reference compound] with hNMUR2 (Homo sapiens, UniProt Q9GZQ4).
100
